target or system: Adrenergic receptor alpha-1 (Rattus norvegicus, UniProt P15823+P23944+P43140)
Sequence (P15823 whole entry): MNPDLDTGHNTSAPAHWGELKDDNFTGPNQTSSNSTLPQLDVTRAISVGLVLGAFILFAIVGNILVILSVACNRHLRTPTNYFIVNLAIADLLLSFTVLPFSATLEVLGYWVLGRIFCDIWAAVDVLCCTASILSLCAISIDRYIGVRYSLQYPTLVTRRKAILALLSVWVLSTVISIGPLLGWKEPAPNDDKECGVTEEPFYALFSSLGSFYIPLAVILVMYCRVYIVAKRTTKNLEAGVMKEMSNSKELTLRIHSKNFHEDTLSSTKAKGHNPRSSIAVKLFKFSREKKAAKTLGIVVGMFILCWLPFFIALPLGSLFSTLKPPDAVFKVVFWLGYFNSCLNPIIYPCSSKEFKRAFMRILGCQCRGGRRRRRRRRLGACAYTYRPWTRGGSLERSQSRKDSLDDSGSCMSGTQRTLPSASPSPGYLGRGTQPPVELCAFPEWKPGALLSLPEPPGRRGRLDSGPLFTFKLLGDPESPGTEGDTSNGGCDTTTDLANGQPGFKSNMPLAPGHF
Sequence (P23944 whole entry): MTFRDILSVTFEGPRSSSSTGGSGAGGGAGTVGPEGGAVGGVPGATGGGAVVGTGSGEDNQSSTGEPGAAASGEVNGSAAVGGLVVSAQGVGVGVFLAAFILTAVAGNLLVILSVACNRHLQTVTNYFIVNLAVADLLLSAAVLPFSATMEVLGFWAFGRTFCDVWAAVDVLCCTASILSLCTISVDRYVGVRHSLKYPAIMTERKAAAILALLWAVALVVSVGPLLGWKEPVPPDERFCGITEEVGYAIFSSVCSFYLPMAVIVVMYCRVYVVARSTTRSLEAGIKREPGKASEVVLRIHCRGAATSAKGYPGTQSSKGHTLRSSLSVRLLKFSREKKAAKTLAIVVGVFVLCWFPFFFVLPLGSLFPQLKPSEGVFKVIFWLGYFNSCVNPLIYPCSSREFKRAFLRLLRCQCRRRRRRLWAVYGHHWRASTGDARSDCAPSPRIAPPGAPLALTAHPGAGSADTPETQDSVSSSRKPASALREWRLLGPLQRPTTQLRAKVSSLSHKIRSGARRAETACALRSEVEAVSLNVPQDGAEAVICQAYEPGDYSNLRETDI
Sequence (P43140 whole entry): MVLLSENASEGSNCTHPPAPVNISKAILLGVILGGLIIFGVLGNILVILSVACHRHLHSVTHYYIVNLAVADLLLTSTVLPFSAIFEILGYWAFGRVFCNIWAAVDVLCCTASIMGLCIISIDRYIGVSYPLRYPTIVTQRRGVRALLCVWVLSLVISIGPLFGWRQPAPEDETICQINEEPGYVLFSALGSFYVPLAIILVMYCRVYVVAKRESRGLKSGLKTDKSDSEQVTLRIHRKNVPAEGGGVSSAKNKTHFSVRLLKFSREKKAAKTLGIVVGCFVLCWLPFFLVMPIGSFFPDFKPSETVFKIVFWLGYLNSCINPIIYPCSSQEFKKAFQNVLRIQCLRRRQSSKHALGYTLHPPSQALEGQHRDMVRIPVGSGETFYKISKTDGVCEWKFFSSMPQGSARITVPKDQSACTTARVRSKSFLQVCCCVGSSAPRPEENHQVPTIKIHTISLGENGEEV
protocol text: Inhibition of [3H]prazosin binding to alpha-1 adrenergic receptor from rat cortical membranes
Type: cell membranes, Membrane
readout kind: IC50

- compound: "O=C1NCCN1CCN1CCN(C2CC(c3ccc(F)cc3)c3ccccc32)CC1 (centres undefined)"
  readout kind: "IC50"
  value observed: "0.033 µM"
- compound: "CN1CCN([C@@H]2C[C@@H](c3ccc(F)cc3)c3ccc(F)cc32)CC1"
  readout kind: "IC50"
  value observed: "0.0093 µM"
- compound: "O.O=C1NCCN1CCN1CCN([C@H]2C[C@H](c3ccc(F)cc3)c3ccccc32)CC1"
  readout kind: "IC50"
  value observed: "0.54 µM"
- compound: "O=C(O)/C=C\\C(=O)O.O=C(O)/C=C\\C(=O)O.O=C1NCCN1CCN1CCN([C@H]2C[C@H](c3ccc(F)cc3)c3ccc(F)cc32)CC1"
  readout kind: "IC50"
  value observed: "0.9 µM"
- compound: "CN1CCN(CCN2CCN([C@H]3C[C@H](c4ccc(F)cc4)c4ccc(F)cc43)CC2)C1=O"
  readout kind: "IC50"
  value observed: "1.3 µM"

[in] Give its IC50 value. Item: OCCN1CCN(C2CC(c3ccc(F)cc3)c3ccccc32)CC1 (centres undefined)
[out] 0.062 µM

[in] Give its IC50 value. Item: "Cc1nc2sccn2c(=O)c1CCN1CCC(=C(c2ccc(F)cc2)c2ccc(F)cc2)CC1"
[out] 0.047 µM

[in] Give its IC50 value. Item: Cl.Cl.OC1=NCCN1CCCN1CCN(C2CC(c3ccc(F)cc3)c3ccc(F)cc32)CC1 (centres undefined)
[out] 0.012 µM

[in] Give its IC50 value. Item: O=C1NCCN1CCN1CCN(C2CC(c3ccc(F)cc3)c3ccc(F)cc32)CC1 (centres undefined)
[out] 0.024 µM

[in] Give its IC50 value. Item: CN1CCN(C2CC(c3ccc(F)cc3)c3ccc(F)cc32)CC1 (centres undefined)
[out] 0.022 µM
